# assay.target: Estrogen receptor (Bos taurus) (UniProt Q9XSB5+P49884)
# method.description: Evaluated for relative binding affinity (RBA) for calf uterine estrogen receptor
# Format: protein assay
measured.attribute: relative binding affinity (RBA)
API doc: respond with a numeric literal and nothing else, no unit.

Take a look at these entries with their results.
>>> measured_result("CCn1c2cc(O)ccc2c2ccc3cc(O)ccc3c21")
20
>>> measured_result("Cn1c2cc(O)ccc2c2ccc3cc(O)ccc3c21")
9.5
>>> measured_result("CCn1c2cc(O)ccc2c2ccc3ccc(O)cc3c21")
3.6
>>> measured_result("CCn1c2ccc(O)cc2c2ccc3cc(O)ccc3c21")
6.5
>>> measured_result("CCn1c2c(c3ccc(O)cc31)CCc1ccc(O)cc1-2")
9.7

GET /values?readout=relative binding affinity (RBA)&item= CCn1c2c(c3cc(O)ccc31)CCc1ccc(O)cc1-2 0.7

Returns the measured relative binding affinity (RBA) for the input molecule. Input: CCCCn1c2cc(O)ccc2c2ccc3cc(O)ccc3c21 2.3

Fill in the blank: the reported relative binding affinity (RBA) of CCn1c2cc(O)ccc2c2ccc3c(O)cccc3c21 is ____. 0.65

Which value of relative binding affinity (RBA) has been reported for CCn1c2ccc(O)cc2c2ccc3ccc(O)cc3c21 in the records? 0.08

Would you kindly share the measured relative binding affinity (RBA) for CCn1c2c(c3ccccc31)CCc1cc(O)ccc1-2 ? 1.8

====

Measured relative binding affinity (RBA) of individual entries
# assay.target: Estrogen receptor (Bos taurus) (UniProt Q9XSB5+P49884)
# method.description: Evaluated for relative binding affinity (RBA) for calf uterine estrogen receptor
# Type: protein assay
No unit in the answer, please; the number alone is enough.

>>> measured_result("CCn1c2c(c3cc(O)ccc31)CCc1cc(O)ccc1-2")
13
>>> measured_result("CCCn1c2cc(O)ccc2c2ccc3cc(O)ccc3c21")
13
>>> measured_result("CCCn1c2c(c3ccc(O)cc31)CCc1cc(O)ccc1-2")
38

Return relative binding affinity (RBA) measured with Estrogen receptor (Bos taurus) (UniProt Q9XSB5+P49884) given this molecule: CCn1c2c(c3cc(O)ccc31)CCc1ccccc1-2 0.06

Item CCn1c2c(c3ccc(O)cc31)CCc1cc(O)ccc1-2 with Estrogen receptor (Bos taurus) (UniProt Q9XSB5+P49884) - relative binding affinity (RBA)? 30

// map CCCCn1c2c(c3ccc(O)cc31)CCc1cc(O)ccc1-2 to recorded relative binding affinity (RBA) (system: Estrogen receptor (Bos taurus) (UniProt Q9XSB5+P49884)) 9.5

Please state recorded relative binding affinity (RBA) (tested on Estrogen receptor (Bos taurus) (UniProt Q9XSB5+P49884)) of CCn1c2ccc(O)cc2c2ccc3c(O)cccc3c21 0.1

API: value(readout= relative binding affinity (RBA), system= Estrogen receptor (Bos taurus) (UniProt Q9XSB5+P49884), query= CCn1c2c(c3ccc(O)cc31)CCc1ccccc1-2 ) 0.8

Look up relative binding affinity (RBA) with Estrogen receptor (Bos taurus) (UniProt Q9XSB5+P49884) for this molecule: CCn1c2c(c3cc(O)ccc31)CCc1c(O)cccc1-2 1.9

# returns recorded relative binding affinity (RBA) (system: Estrogen receptor (Bos taurus) (UniProt Q9XSB5+P49884)) for Cn1c2c(c3ccc(O)cc31)CCc1cc(O)ccc1-2 9.6

What reported relative binding affinity (RBA) corresponds to CCn1c2ccccc2c2ccc3cc(O)ccc3c21 on Estrogen receptor (Bos taurus) (UniProt Q9XSB5+P49884)? 0.33

Could you share what relative binding affinity (RBA) was measured for CCn1c2cc(O)ccc2c2ccc3ccccc3c21 , tested on Estrogen receptor (Bos taurus) (UniProt Q9XSB5+P49884)? 0.01

Recall the recorded relative binding affinity (RBA) for CCn1c2c(c3ccc(O)cc31)CCc1c(O)cccc1-2 with Estrogen receptor (Bos taurus) (UniProt Q9XSB5+P49884) and state it. 1.3
